- Tested on: KYSE-520 cell (human esophageal squamous cell carcinoma cell)
- protocol.notes: Inhibition of the proliferation activity of KYSE-520 cell (CellTiter-Glo)
- Assay type: cell-based
- test.conditions: 120 h, KYSE-520 cell proliferation, 5 days
measured.quantity: pIC50
Remember the convention: pIC50 equals -log10 of concentration in molar.

{"compound": "C[C@@H]1OCC2(CCN(c3ncc(Sc4ccnc(N5CC(CF)C5)c4Cl)nc3CO)CC2)[C@@H]1N [Example 16]", "pIC50": 7.40}

Find the recorded pIC50 belonging to C[C@@H]1OCC2(CCN(c3ncc(Sc4ccnc(N5CC(CS(C)(=O)=O)C5)c4Cl)nc3CO)CC2)[C@@H]1N [Example 26] and report it.
7.52

Find the recorded pIC50 belonging to C[C@@H]1OCC2(CCN(c3ncc(Sc4ccnc(N5CCC(CC#N)C5)c4Cl)nc3CO)CC2)[C@@H]1N (stereo partly drawn) [Example 10] and report it.
7.40

Find the recorded pIC50 belonging to C[C@@H]1OCC2(CCN(c3ncc(Sc4ccnc(N5CC(F)(CO)C5)c4Cl)nc3CO)CC2)[C@@H]1N [Example 39] and report it.
7.70

Find the recorded pIC50 belonging to C[C@@H]1OCC2(CCN(c3ncc(Sc4ccnc(N5CC[C@H]5CO)c4Cl)nc3CO)CC2)[C@@H]1N [Example 9] and report it.
6.66

Find the recorded pIC50 belonging to COCC1(C)CN(c2nccc(Sc3cnc(N4CCC5(CC4)CO[C@@H](C)[C@H]5N)c(CO)n3)c2Cl)C1 [Example 33] and report it.
7.05

Find the recorded pIC50 belonging to COCC1CN(c2nccc(Sc3cnc(N4CCC5(CC4)CO[C@@H](C)[C@H]5N)c(CO)n3)c2Cl)C1 [Example 21] and report it.
6.96

Find the recorded pIC50 belonging to C[C@@H]1OCC2(CCN(c3ncc(Sc4ccnc(N5CC(CO)C5)c4Cl)nc3CO)CC2)[C@@H]1N [Example 6] and report it.
7.40

Find the recorded pIC50 belonging to CC(C)(O)C1CN(c2nccc(Sc3cnc(N4CCC5(CC4)CCC4(CC4)[C@H]5N)c(CO)n3)c2Cl)C1 [Example 49] and report it.
6.57

----------
- target.of.assay: CYP3A4 (Homo sapiens, UniProt P08684)
- Construct: purchased Promega
- Sequence (P08684 whole entry): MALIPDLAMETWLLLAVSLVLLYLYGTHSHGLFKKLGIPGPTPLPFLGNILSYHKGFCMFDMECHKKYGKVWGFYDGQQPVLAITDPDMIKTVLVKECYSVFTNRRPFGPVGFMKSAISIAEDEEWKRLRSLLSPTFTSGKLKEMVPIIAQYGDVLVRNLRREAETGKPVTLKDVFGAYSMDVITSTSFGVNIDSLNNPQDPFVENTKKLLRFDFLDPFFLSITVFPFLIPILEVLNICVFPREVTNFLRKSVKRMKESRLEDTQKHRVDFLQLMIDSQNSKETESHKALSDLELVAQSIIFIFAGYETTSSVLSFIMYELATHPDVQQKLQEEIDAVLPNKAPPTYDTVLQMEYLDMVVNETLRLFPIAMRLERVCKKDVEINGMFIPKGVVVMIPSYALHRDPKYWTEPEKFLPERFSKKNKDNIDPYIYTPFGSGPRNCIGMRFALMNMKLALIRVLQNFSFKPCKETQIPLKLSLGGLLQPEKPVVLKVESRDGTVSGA
- protocol.notes: Biochemical assay for CYP enzyme inhibition, P450-Glo CYP3A4 Screening System
- Assay type: in vitro ADME
- test.conditions: estimated from percentage inhibition; read-out: IC50 (μM) CYP3A4
Below, each entry is listed alongside its reported IC50.

Find the recorded IC50 belonging to C[C@@H]1OCC2(CCN(c3ncc(Sc4ccnc(N5CC(O)C5)c4Cl)nc3CO)CC2)[C@@H]1N [Control Compound 1] and report it.
> 10 µM

Find the recorded IC50 belonging to `CC(C)(O)C1CN(c2nccc(Sc3cnc(N4CCC5(CC4)Oc4ccccc4[C@H]5N)c(CO)n3)c2Cl)C1` and report it.
> 10 µM

Find the recorded IC50 belonging to `C[C@@H]1OCC2(CCN(c3ncc(Sc4ccnc(N5CC(CO)(CF)C5)c4Cl)nc3CO)CC2)[C@@H]1N` and report it.
> 10 µM

Find the recorded IC50 belonging to `CC(C)(O)C1CN(c2nccc(Sc3cnc(N4CCC5(CC4)Cc4ccccc4[C@H]5N)c(CO)n3)c2Cl)C1` and report it.
> 10 µM

Find the recorded IC50 belonging to `CC(C)(O)C1CN(c2nccc(Sc3cnc(N4CCC5(CC4)Cc4ncccc4[C@H]5N)c(CO)n3)c2Cl)C1` and report it.
> 10 µM
